Target: human recombinant HDAC1 (Homo sapiens, UniProt Q13547)
Sequence (Q13547 whole entry): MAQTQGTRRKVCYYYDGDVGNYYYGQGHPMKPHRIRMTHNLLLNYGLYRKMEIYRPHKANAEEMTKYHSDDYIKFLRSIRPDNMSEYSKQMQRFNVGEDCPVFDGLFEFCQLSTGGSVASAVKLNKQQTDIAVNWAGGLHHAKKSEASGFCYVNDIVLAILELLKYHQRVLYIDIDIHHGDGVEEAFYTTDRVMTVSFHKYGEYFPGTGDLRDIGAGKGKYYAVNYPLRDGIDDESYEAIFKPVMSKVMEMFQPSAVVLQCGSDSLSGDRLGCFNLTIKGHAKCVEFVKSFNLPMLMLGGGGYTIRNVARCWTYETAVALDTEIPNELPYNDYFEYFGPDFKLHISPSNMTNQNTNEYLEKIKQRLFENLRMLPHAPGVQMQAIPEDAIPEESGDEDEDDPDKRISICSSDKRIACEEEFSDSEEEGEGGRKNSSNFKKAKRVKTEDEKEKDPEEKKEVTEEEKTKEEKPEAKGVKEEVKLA
Experiment: HDAC1 enzyme activity inhibition assay (in vitro, fluorimetric)
Conditions: human recombinant HDAC1, fluorimetric kit, 30° C. 60 minutes
pIC50: −log10 of the molar value.
MEASUREMENT_NAME: pIC50

Look over these answered cases.
C[C@@H]1CN(Cc2ccc(C(=O)NO)cc2)C[C@H](C)N1Cc1cc(F)c(F)cc1F [Compound 213]	< 5.00
C[C@@H]1CN(Cc2ccc(C(=O)NO)cc2)C[C@H](C)N1Cc1cccc(CN2CCN(Cc3ccccc3)CC2)c1 [Compound 385]	< 5.00

Quick check: pIC50 of C[C@@H]1CN(Cc2ccc3[nH]c(C(=O)NO)cc3c2)C[C@H](C)N1Cc1ccccc1 [Compound 569] ? < 5.00

These measurements were taken from patent US10287255B2.
